Origin of values: patent US10662218B2

Recorded log10(solubility at 1 h), one value per entry.
experiment-notes: Compound solubility in PBS (pH 7.4), LC-MS/MS
experimental-conditions: PBS (pH 7.4), pH 7.4, aqueous buffer, kinetic from dmso stock, Solubility (μM), Table 6-D
Base-10 log of solubility at 1 h, unit µM.

# compound, log10(solubility at 1 h)
measured = [
    ("CC1=C(O)C(=O)C=C2C1=CC=C1[C@@]2(C)CC[C@@]2(C)[C@@H]3C[C@](C)(C#N)CC[C@]3(C)CC[C@]12C [ERX1015]", -0.10),
    ("CC1=C(O)C(=O)C=C2C1=CC=C1[C@@]2(C)CC[C@@]2(C)[C@@H]3C[C@](C)(N)CC[C@]3(C)CC[C@]12C [ERX1077]", 1.22),
    ("CC(=O)Oc1cc2c(c(C)c1OC(C)=O)C(SC(C)C)C=C1[C@@]2(C)CC[C@@]2(C)[C@@H]3C[C@](C)(CN(C)C)CC[C@]3(C)CC[C@]12C (stereo partly drawn) [ERX1115]", -0.25),
    ("CC(=O)Oc1cc2c(c(C)c1OC(C)=O)C(SC(C)C)C=C1[C@@]2(C)CC[C@@]2(C)[C@@H]3C[C@](C)(C(N)=O)CC[C@]3(C)CC[C@]12C (stereo partly drawn) [ERX1066]", -0.20),
    ("CC1=C(O)C(=O)C=C2C1=CC=C1[C@@]2(C)CC[C@@]2(C)[C@@H]3C[C@](C)(CN4CCN(C)CC4)CC[C@]3(C)CC[C@]12C [ERX1117]", -0.04),
]

I would be grateful if you could share the reported log10(solubility at 1 h) for CCCOC1=C(C)C2=CC=C3[C@@](C)(CC[C@@]4(C)[C@@H]5C[C@](C)(C(N)=O)CC[C@]5(C)CC[C@]34C)C2=CC1=O [ERX1121] . 0.19

###

Collected change in vivo at 2 mg/kg values appear next to each entry.
Test system: C57BL/6 Diet Induced Obese (DIO) mice
experiment-notes: Oral (P.O.) administration study in DIO mice: in vivo activity, body weights
Design: species or system mouse
experimental-conditions: Mus musculus, po, 240 h; DIO mice, male, 2 mg/kg, phase DSNG, Day 10; difference of group mean from vehicle group 1; read-out: Body weight, %-Diff
The reply should contain only the number, in %.

Some solved cases for reference:
# smiles-input, units-label, change in vivo at 2 mg/kg
measured = [
    ("CCOC1=C(C)C2=CC=C3[C@@](C)(CC[C@@]4(C)[C@@H]5C[C@](C)(C(N)=O)CC[C@]5(C)CC[C@]34C)C2=CC1=O", "%", -3),
    ("CC1=C(O)C(=O)C=C2C1=CC=C1[C@@]2(C)CC[C@@]2(C)[C@@H]3C[C@](C)(N(C)C)CC[C@]3(C)CC[C@]12C", "%", -1),
    ("CC1=C(O)C(=O)C=C2C1=CC=C1[C@@]2(C)CC[C@@]2(C)[C@@H]3C[C@](C)(CN(C)C)CC[C@]3(C)CC[C@]12C", "%", 0),
    ("CC1=C(O)C(=O)C=C2C1=CC=C1[C@@]2(C)CC[C@@]2(C)[C@@H]3C[C@](C)(N)CC[C@]3(C)CC[C@]12C", "%", 1),
    ("CC(=O)N(C)C[C@]1(C)CC[C@]2(C)CC[C@]3(C)C4=CC=C5C(=CC(=O)C(O)=C5C)[C@]4(C)CC[C@@]3(C)[C@@H]2C1", "%", 0),
]

Okay, now this compound:
GET /values?readout=change in vivo at 2 mg/kg&item= CC(=O)N[C@]1(C)CC[C@]2(C)CC[C@]3(C)C4=CC=C5C(=CC(=O)C(O)=C5C)[C@]4(C)CC[C@@]3(C)[C@@H]2C1 -13

###

// values below are reported Body weight, Mean
Tested on: C57BL/6 Diet Induced Obese (DIO) mice
experiment-notes: Oral (P.O.) administration study in DIO mice: in vivo activity, body weights
Parameters: species or system mouse
experimental-conditions: DIO mice, male, 2 mg/kg, phase DSNG, Day 10
Field format: number, assumed g, no unit text.

Field: example entries. Status: answers known.
# compound, study-target, readout-kind, units-label, measured-result
records = [
    ("CC1=C(O)C(=O)C=C2C1=CC=C1[C@@]2(C)CC[C@@]2(C)[C@@H]3C[C@](C)(N(C)C)CC[C@]3(C)CC[C@]12C [ERX1177]", "C57BL/6 Diet Induced Obese (DIO) mice", "Body weight, Mean", "g", 33.1),
    ("COC(=O)[C@]1(C)CC[C@]2(C)CC[C@]3(C)C4=CC=C5C(=CC(=O)C(O)=C5C)[C@]4(C)CC[C@@]3(C)[C@@H]2C1 [Pristimerin, reference compound]", "C57BL/6 Diet Induced Obese (DIO) mice", "Body weight, Mean", "g", 33.2),
]

// query Body weight, Mean value for entry CCOC1=C(C)C2=CC=C3[C@@](C)(CC[C@@]4(C)[C@@H]5C[C@](C)(C(N)=O)CC[C@]5(C)CC[C@]34C)C2=CC1=O [ERX1107] 32.4

Give its Body weight, Mean value. Item: CC(=O)N(C)C[C@]1(C)CC[C@]2(C)CC[C@]3(C)C4=CC=C5C(=CC(=O)C(O)=C5C)[C@]4(C)CC[C@@]3(C)[C@@H]2C1 [ERX1149] 33.5

###

experiment-notes: physchem
experimental-conditions: pH 7.4, aqueous buffer, kinetic from dmso stock, Solubility (μM) Mean
readout-kind: solubility (µM)
I only need the number, in µM, no unit after it.

Requested read-out: solubility. Entry: CC(=O)OC1=C(C)C2=CC=C3[C@@](C)(CC[C@@]4(C)[C@@H]5C[C@](C)(C(=O)O)CC[C@]5(C)CC[C@]34C)C2=CC1=O 48.8

###

System: C57BL/6 Diet Induced Obese (DIO) mice
experiment-notes: Oral (P.O.) administration study in DIO mice: in vivo activity, body weights
Design: species or system mouse
experimental-conditions: Mus musculus, po, 216 h; DIO mice, male, 2 mg/kg, phase DSNG, Day 9; difference of group mean from vehicle group 1; read-out: Body weight, %-Diff
Reported change in vivo at 2 mg/kg values follow for various molecules
Report as a plain number; the unit % is understood.

# smiles-input, study-target, units-label, change in vivo at 2 mg/kg
data = [
    ("CC1=C(O)C(=O)C=C2C1=CC=C1[C@@]2(C)CC[C@@]2(C)[C@@H]3C[C@](C)(N)CC[C@]3(C)CC[C@]12C", "C57BL/6 Diet Induced Obese (DIO) mice", "%", 1),
    ("CC1=C(O)C(=O)C=C2C1=CC=C1[C@@]2(C)CC[C@@]2(C)[C@@H]3C[C@](C)(N(C)C)CC[C@]3(C)CC[C@]12C", "C57BL/6 Diet Induced Obese (DIO) mice", "%", -1),
    ("CC(=O)N[C@]1(C)CC[C@]2(C)CC[C@]3(C)C4=CC=C5C(=CC(=O)C(O)=C5C)[C@]4(C)CC[C@@]3(C)[C@@H]2C1", "C57BL/6 Diet Induced Obese (DIO) mice", "%", -10),
    ("CCOC1=C(C)C2=CC=C3[C@@](C)(CC[C@@]4(C)[C@@H]5C[C@](C)(C(N)=O)CC[C@]5(C)CC[C@]34C)C2=CC1=O", "C57BL/6 Diet Induced Obese (DIO) mice", "%", -3),
    ("CC(=O)N(C)C[C@]1(C)CC[C@]2(C)CC[C@]3(C)C4=CC=C5C(=CC(=O)C(O)=C5C)[C@]4(C)CC[C@@]3(C)[C@@H]2C1", "C57BL/6 Diet Induced Obese (DIO) mice", "%", 0),
]

Let us examine a further case.
Suppose we examine the molecule CC1=C(O)C(=O)C=C2C1=CC=C1[C@@]2(C)CC[C@@]2(C)[C@@H]3C[C@](C)(CN(C)C)CC[C@]3(C)CC[C@]12C ; what change in vivo at 2 mg/kg value has been reported? 0

###

experiment-notes: physchem
experimental-conditions: pH 7.4, aqueous buffer, kinetic from dmso stock, Solubility (μM) Mean, Table 6-B; PBS (pH 7.4), test concentration 100 μM (1% of DMSO), shaken (1000 rpm) 1 h at room temperature, n = 2
readout-kind: solubility (µM)
Reply with just the number (in µM).

Examples from the recorded data:
# smiles-input, solubility / µM
measured = [
    ("CC1=C(O)C(=O)C=C2C1=CC=C1[C@@]2(C)CC[C@@]2(C)[C@@H]3C[C@](C)(C(=O)O)CC[C@]3(C)CC[C@]12C", 3.89),
    ("CC1=C(O)C(=O)C=C2C1=CC=C1[C@@]2(C)CC[C@@]2(C)[C@@H]3C[C@](C)(C(=O)N(C)C)CC[C@]3(C)CC[C@]12C", 0.08),
]

Next molecule, please.
Name the reported solubility value associated with the molecule CC1=C(O)C(=O)C=C2C1=CC=C1[C@@]2(C)CC[C@@]2(C)[C@@H]3C[C@](C)(CO)CC[C@]3(C)CC[C@]12C 0.64
